B1: FAM50A (parent)
chain: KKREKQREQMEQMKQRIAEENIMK

variants of: B1; assay: protein stability index of a GFP-peptide fusion (GPS, HEK-293T) (PSI 1-6); higher = more stable; conditions: c terminus: a fixed tail appended;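 also: lentivirally expressed fusions sorted by FACS into six bins by GFP to DsRed ratio, PSI derived from sequencing read proportions per bin multiplied by bin number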
Readout type: protein stability index
Answer with a number only.

Enquiry: Request the reported protein stability index associated with `K1E`
Return: 5.1

Enquiry: Request the reported protein stability index associated with `K2E`
Return: 5.04

Enquiry: Request the reported protein stability index associated with `R7N`
Return: 4.93

Enquiry: Request the reported protein stability index associated with `K14E`
Return: 5.01

Enquiry: Request the reported protein stability index associated with `R3M`
Return: 5.04

Enquiry: Request the reported protein stability index associated with `R7I`
Return: 4.96

Enquiry: Request the reported protein stability index associated with `R3D`
Return: 5.11

Enquiry: Request the reported protein stability index associated with `R16Q`
Return: 4.97

Enquiry: Request the reported protein stability index associated with `K1T`
Return: 5.07

Enquiry: Request the reported protein stability index associated with `M10R`
Return: 5.14

Enquiry: Request the reported protein stability index associated with `I17H`
Return: 5.02

Enquiry: Request the reported protein stability index associated with `K2R`
Return: 5.03

Enquiry: Request the reported protein stability index associated with `R3N`
Return: 5.08

Enquiry: Request the reported protein stability index associated with `K24D`
Return: 5.12

Enquiry: Request the reported protein stability index associated with `M10Q`
Return: 4.86

Enquiry: Request the reported protein stability index associated with `R16H`
Return: 5.09

Enquiry: Request the reported protein stability index associated with `R16T`
Return: 5.01

Enquiry: Request the reported protein stability index associated with `N21D`
Return: 5.11
